A collection of binders and their measured Ratio (-BP/+BP), DF-25000007
system: T1, IL-18 binding protein (IL-18BP) (UniProt O95998 31-194)
T1 sequence (looked up): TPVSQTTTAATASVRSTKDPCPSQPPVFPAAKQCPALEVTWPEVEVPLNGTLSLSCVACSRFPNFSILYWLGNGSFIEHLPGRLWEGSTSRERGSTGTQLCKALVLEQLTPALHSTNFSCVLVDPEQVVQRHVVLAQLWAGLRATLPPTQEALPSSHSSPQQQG
measurement_protocol: cell-based or functional assay
Respond using a number only.

binder | test_readout | recorded_result
IL-18 variant G3P, E6R, K53T, D54Y, S55I, T63V, N91G, R104K (ligand) YFPKLRSKLSVIRNLNDQVLFIDQGNRPLFEDMTDSDMRDNAPRTIFIISMYTYIQPRGMAVVISVKSEKISTLSSENKIISFKEMNPPDGIKDTKSDIIFFQKSVPGHDNKMQFESSSYEGYFLASEKERDLFKLILKKEDELGDRSIMFTVQNED | Ratio (-BP/+BP), DF-25000007 | 0.99
IL-18 variant G3P, E6K, D54Y, S55P, Q56H, T63S, N91S, R104Q (ligand) YFPKLKSKLSVIRNLNDQVLFIDQGNRPLFEDMTDSDMRDNAPRTIFIISMYKYPHPRGMAVSISVKSEKISTLSSENKIISFKEMNPPDSIKDTKSDIIFFQQSVPGHDNKMQFESSSYEGYFLASEKERDLFKLILKKEDELGDRSIMFTVQNED | Ratio (-BP/+BP), DF-25000007 | 0.98
IL-18 variant G3I, E6D, D54A, S55F, N91Y, R104H (ligand) YFIKLDSKLSVIRNLNDQVLFIDQGNRPLFEDMTDSDMRDNAPRTIFIISMYKAFQPRGMAVTISVKSEKISTLSSENKIISFKEMNPPDYIKDTKSDIIFFQHSVPGHDNKMQFESSSYEGYFLASEKERDLFKLILKKEDELGDRSIMFTVQNED | Ratio (-BP/+BP), DF-25000007 | 1.81

// query State the recorded Ratio (-BP/+BP), DF-25000007 for this entry: IL-18 variant G3P, E6S, K53R, D54Y, S55P, T63I, N91K (ligand) YFPKLSSKLSVIRNLNDQVLFIDQGNRPLFEDMTDSDMRDNAPRTIFIISMYRYPQPRGMAVIISVKSEKISTLSSENKIISFKEMNPPDKIKDTKSDIIFFQRSVPGHDNKMQFESSSYEGYFLASEKERDLFKLILKKEDELGDRSIMFTVQNED
// result 0.99

// query Now give it for IL-18 variant G3P, E6D, K53T, D54N, T63A, N91T, R104P (ligand) YFPKLDSKLSVIRNLNDQVLFIDQGNRPLFEDMTDSDMRDNAPRTIFIISMYTNSQPRGMAVAISVKSEKISTLSSENKIISFKEMNPPDTIKDTKSDIIFFQPSVPGHDNKMQFESSSYEGYFLASEKERDLFKLILKKEDELGDRSIMFTVQNED too.
// result 1.01
